test system: human lung cancer strain NCI-H441; assay: NCI-H441 cell proliferation inhibitory activity (CellTiter-Glo, 4 days); assay type: cell-based; settings: 50% proliferation inhibitory concentration, four days, read-out: NCl-H441 IC50
# IC50 per entry
value-type: IC50 (nM)

>>> reported_value("CCO[C@@H]1C[C@H]2C(=O)NC3(CCC3)C(=O)N(C)[C@@H](C3CCCC3)C(=O)N(C)[C@H](C(=O)N(C)C)CC(=O)N(C)[C@@H](Cc3cccnc3)C(=O)N[C@@H]([C@@H](C)CC)C(=O)N(C)CC(=O)N(C)[C@H]3CCCCCN(C3=O)[C@@H](Cc3ccc(F)cc3)C(=O)N(C)CC(=O)N[C@@H](CCc3cc(F)c(C(F)(F)F)c(F)c3)C(=O)N2C1")
50.8
>>> reported_value("CCO[C@@H]1C[C@H]2C(=O)NC3(CCC3)C(=O)N(C)[C@@H](C3CCCC3)C(=O)N(C)[C@H](C(=O)N(C)C)CC(=O)N(C)[C@@H](CC)C(=O)N[C@@H]([C@@H](C)CC)C(=O)N(C)CC(=O)N(C)[C@H]3CCCCCN(C3=O)[C@@H](Cc3ccc(F)cc3)C(=O)N(C)CC(=O)N[C@@H](CCc3cc(F)c(C(F)(F)F)c(F)c3)C(=O)N2C1")
15.5
>>> reported_value("CCO[C@@H]1C[C@H]2C(=O)NC3(CCC3)C(=O)N(C)[C@@H](C3CCCC3)C(=O)N(C)[C@H](C(=O)N(C)C)CC(=O)N(C)[C@@H](CC(C)C)C(=O)N[C@@H]([C@@H](C)CC)C(=O)N(C)CC(=O)N(C)[C@H]3C/C=C\\CCN(C3=O)[C@@H](Cc3ccc(F)cc3C)C(=O)N(C)CC(=O)N[C@@H](CCc3ccc(Cl)c(Cl)c3)C(=O)N2C1")
85.8
>>> reported_value("CCO[C@@H]1C[C@H]2C(=O)NC3(CCC3)C(=O)N(C)[C@@H](C3CCCC3)C(=O)N(C)[C@H](C(=O)N(C)C)CC(=O)N(C)[C@@H](CC(C)C)C(=O)N[C@@H]([C@@H](C)CC)C(=O)N(C)CC(=O)N(C)[C@H]3C/C=C\\CCN(C3=O)[C@@H](Cc3ccc(C(F)(F)F)cc3)C(=O)N(C)CC(=O)N[C@@H](CCc3ccc(Cl)c(Cl)c3)C(=O)N2C1")
10.2
>>> reported_value("CC[C@H](C)[C@@H]1NC(=O)[C@H](CC2CC2)N(C)C(=O)C[C@@H](C(=O)N(C)C)N(C)C(=O)[C@H](C2CCCC2)N(C)C(=O)C2(CCC2)NC(=O)[C@H](CCC(F)F)N(C)C(=O)[C@H](CCc2cc(F)c(C(F)(F)F)c(F)c2)NC(=O)CN(C)C(=O)[C@H](Cc2ccc(C(F)(F)F)cc2)N2CC/C=C\\C[C@@H](C2=O)N(C)C(=O)CN(C)C1=O")
82
>>> reported_value("CCO[C@@H]1C[C@H]2C(=O)NC3(CCC3)C(=O)N(C)[C@@H](C3CCCC3)C(=O)N(C)[C@H](C(=O)N(C)C)CC(=O)N(C)[C@@H](CC3CC3)C(=O)N[C@@H]([C@@H](C)CC)C(=O)N(C)CC(=O)N(C)[C@H]3C/C=C\\CCN(C3=O)[C@@H](Cc3ccc(F)cc3C)C(=O)N(C)CC(=O)N[C@@H](CCc3ccc(Cl)c(Cl)c3)C(=O)N2C1")
216
>>> reported_value("CCO[C@@H]1C[C@H]2C(=O)NC3(CCC3)C(=O)N(C)[C@@H](C3CCCC3)C(=O)N(C)[C@H](C(=O)N(C)C)CC(=O)N(C)[C@@H](CC3CCCC3)C(=O)N[C@@H]([C@@H](C)CC)C(=O)N(C)CC(=O)N(C)[C@H]3C/C=C\\CCN(C3=O)[C@@H](CC3CCC(F)(F)CC3)C(=O)N(C)CC(=O)N[C@@H](CCc3cc(F)c(C(F)(F)F)c(F)c3)C(=O)N2C1")
18.2
>>> reported_value("CCO[C@@H]1C[C@H]2C(=O)NC3(CCC3)C(=O)N(C)[C@@H](C3CCCC3)C(=O)N(C)[C@H](C(=O)N3CCCC3)CC(=O)N(C)[C@@H](CC3CCC3)C(=O)N[C@@H]([C@@H](C)CC)C(=O)N(C)CC(=O)N(C)[C@H]3C/C=C\\CCN(C3=O)[C@@H](Cc3ccc(C)cc3)C(=O)N(C)CC(=O)N[C@@H](CCc3cc(F)c(C(F)(F)F)c(F)c3)C(=O)N2C1")
20.2
>>> reported_value("CC[C@H](C)[C@@H]1NC(=O)[C@H](CC)N(C)C(=O)C[C@@H](C(=O)N(C)C)N(C)C(=O)[C@H](C2CCCC2)N(C)C(=O)C2(CCC2)NC(=O)[C@@H]2C[C@@H](C(F)(F)F)CN2C(=O)[C@H](CCc2cc(F)c(C(F)(F)F)c(F)c2)NC(=O)CN(C)C(=O)[C@H](Cc2ccc(C(F)(F)F)cc2)N2CC/C=C\\C[C@@H](C2=O)N(C)C(=O)CN(C)C1=O")
16.5
>>> reported_value("CCO[C@@H]1C[C@H]2C(=O)NC3(CCC3)C(=O)N(C)[C@@H](C3CCCC3)C(=O)N(C)[C@H](C(=O)N3CCOCC3)CC(=O)N(C)[C@@H](CC(C)C)C(=O)N[C@@H]([C@@H](C)CC)C(=O)N3CC[C@H]3C(=O)N(C)[C@H]3CC[C@@H](C)CN(C3=O)[C@@H](Cc3ccc(C(F)(F)F)cc3)C(=O)N(C)CC(=O)N[C@@H](CCc3cc(F)c(C(F)(F)F)c(F)c3)C(=O)N2C1")
12.2
>>> reported_value("CCO[C@@H]1C[C@H]2C(=O)NC3(CCC3)C(=O)N(C)[C@@H](C3CCCC3)C(=O)N(C)[C@H](C(=O)N3CCOCC3)CC(=O)N(C)[C@@H](CC)C(=O)N[C@@H]([C@@H](C)CC)C(=O)N(C)CC(=O)N(C)[C@H]3CC[C@@H](C)CN(C3=O)[C@@H](Cc3ccc(C(F)(F)F)cc3)C(=O)N(C)CC(=O)N[C@@H](CCc3cc(F)c(C(F)(F)F)c(F)c3)C(=O)N2C1")
5

* * *

tested on: human lung cancer strain NCI-H441; type: cell-based
*1 amine or outer side, *2 acyl side, *3 side chain or, on linkers, in order; H or OH if unused. Where a SMILES comes first, the peptide text is derived from it. Bridges are numbered along the chain shown (N, C = ends). [ ]: non-standard residue; d: D form. The star is where a group is joined. hPhe(3-Cl-4-CF3) = N[C@@H](CCc1ccc(C(F)(F)F)c(Cl)c1)C(=O)O; NPrPhe(4-CF3) = CCCN[C@@H](Cc1ccc(C(F)(F)F)cc1)C(=O)O; X13 = CCCN([C@@H](COC1CCC1)C(=O)[*:2])[*:1]; NMeGly(cPent) = CN[C@H](C(=O)O)C1CCCC1; Hyp = O=C(O)[C@@H]1C[C@@H](O)CN1; NMeD = CN[C@@H](CC(=O)O)C(=O)O; NMeL = CN[C@@H](CC(C)C)C(=O)O; Morpholide = C1CN(*)CCO1; Ac5c = NC1(C(=O)O)CCCC1; Aze = O=C(O)[C@@H]1CCN1; Ac4c = NC1(C(=O)O)CCC1; Sar = CNCC(=O)O
Simple rule here: IC50 less than 20 nM is Satisfied, otherwise Not satisfied.

>>> group("CCO[C@@H]1C[C@H]2C(=O)NC3(CC(C)(C)C3)C(=O)N(C)[C@@H](C3CCCC3)C(=O)N(C)[C@H](C(=O)N(C)C)CC(=O)N(C)[C@H]3CCCCCCc4ccc(cc4)C[C@@H](C(=O)N(C)CC(=O)N[C@@H](CCc4ccc(C(F)(F)F)c(OC)c4)C(=O)N2C1)N1CC/C=C\\C[C@@H](C1=O)N(C)C(=O)CN(C1CC1)C(=O)[C@H]([C@@H](C)CC)NC3=O")
"Satisfied"
>>> group("CCC[C@H]1C(=O)N[C@@H]([C@@H](C)CC)C(=O)N(C)CC(=O)N(C)[C@H]2C/C=C\\CCN(C2=O)[C@@H](Cc2ccc(C(F)(F)F)cc2)C(=O)N(C)CC(=O)N[C@@H](CCc2ccc(C(F)(F)F)c(Cl)c2)C(=O)N2CCOC[C@H]2C(=O)NC2(CC(C)(C)C2)C(=O)N(C)[C@@H](C(CC)CC)C(=O)N(C)[C@H](C(=O)N(C)C)CC(=O)N1C")
"Not satisfied"
>>> group("CCCN1C(=O)CN(C)C(=O)CN(C)C(=O)[C@H]([C@@H](C)CC)NC(=O)[C@H](CC(C)C)N(C)C(=O)C[C@@H](C(=O)N2CCOCC2)N(C)C(=O)[C@H](C2CCCC2)N(C)C(=O)C2(CCC2)NC(=O)[C@@H]2CCCN2C(=O)[C@H](CCc2ccc(C(F)(F)F)c(Cl)c2)NC(=O)CN(C)C(=O)[C@@H]1COC1CCC1 [PP1816] ([NMeL]I[Sar][Sar][X13][Sar][hPhe(3-Cl-4-CF3)]P[Ac4c][NMeGly(cPent)][NMeD]-Morpholide; lactam N-11)")
"Not satisfied"
>>> group("CCCN1C(=O)CN(C)C(=O)[C@@H]2CCN2C(=O)[C@H]([C@@H](C)CC)NC(=O)[C@H](CC(C)C)N(C)C(=O)C[C@@H](C(=O)N2CCOCC2)N(C)C(=O)[C@H](C2CCCC2)N(C)C(=O)C2(CCCC2)NC(=O)[C@@H]2C[C@@H](OCC)CN2C(=O)[C@H](CCc2ccc(C(F)(F)F)c(Cl)c2)NC(=O)CN(C)C(=O)[C@@H]1Cc1ccc(C(F)(F)F)cc1 [PP0310] ([NMeL]I[Aze][Sar][NPrPhe(4-CF3)][Sar][hPhe(3-Cl-4-CF3)][Hyp](Et)[Ac5c][NMeGly(cPent)][NMeD]-Morpholide; lactam N-11)")
"Satisfied"
>>> group("CCO[C@@H]1C[C@H]2C(=O)NC3(CCC3)C(=O)N(C)[C@@H](C3CCCC3)C(=O)N(C)[C@H](C(=O)N(C)CCOC)CC(=O)N(C)[C@@H](CC(C)C)C(=O)N[C@@H]([C@@H](C)CC)C(=O)N(C)CC(=O)N(C)[C@H]3C/C=C\\CCN(C3=O)[C@@H](Cc3ccc(C(F)(F)F)cc3)C(=O)N(C)CC(=O)N[C@@H](CCc3ccc(Cl)c(Cl)c3)C(=O)N2C1")
"Not satisfied"

Taken from patent EP4603105A1.
